Each entry below carries its recorded pIC50.
Target: Human IL-17A (Homo sapiens)
Experiment: Inhibition of human IL-17A protein-induced GROα/CXCL1 production in HT-29 cells
Assay type: cell-based
Parameters: purchased R&D 317-ILB; host or cells: added exogenously to HT-29 cells
Details: 30 ng/mL human IL-17A protein, 48 h, GROα in supernatant by ELISA kit, read-out: Inhibitory IC50 of compounds on HT-29 cell GROα/CXCL1
Procedure: Experiment Example 3 Inhibition of Human IL-17A Protein-Induced GROα/CXCL1 Production in HT-29 Cells by Compounds […] 30 ng/mL of human IL-17A protein (R&D, #317-ILB) was mixed with gradient concentrations of the IL-17A small-molecule inhibitor, or with […] of a positive control IL-17A antibody (R&D, #AF-317-NA). […] Thereafter, the level of GROα in the cell culture supernatant was determined using a GROα ELISA kit (Cisbio, #62HCXC1PEG). […]
pIC50: −log10 of the molar value.

Past entries and their recorded results:
Cc1[nH]nc2c1-c1cnc(NC(=O)[C@@H](NC(=O)c3ccnn3C(C)C)C(C3CC3)C3CC3)cc1CN(Cc1ccccc1)C(=O)C2 [compound 182]; 6.30 to 7.00
CSCC(C)n1nccc1C(=O)N[C@H](C(=O)Nc1cc2c(cc1F)-c1c(n[nH]c1C)CCOC2)C(C1CC1)C1CC1 (single isomer, unassigned) [compound 40b]; 6.30 to 7.00

Prompt: Given the compound CCn1nccc1C(=O)N[C@H](C(=O)Nc1cc2c(cc1F)-c1c(n[nH]c1C)CCN(CC(C)(F)F)C2)C(C1CC1)C1CC1 [compound 161] , what is its reported pIC50?
Completion: ≥ 7.00

###

Molecular target: Human IL-17A (Homo sapiens)
Sequence (Q16552 20-155 limits assumed): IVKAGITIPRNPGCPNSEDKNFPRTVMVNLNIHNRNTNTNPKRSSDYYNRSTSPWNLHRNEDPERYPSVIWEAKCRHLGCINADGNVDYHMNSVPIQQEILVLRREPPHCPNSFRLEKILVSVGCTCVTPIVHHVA
Test: IL-17A enzyme-linked immunosorbent assay (competitive ELISA, IL-17A/IL-17Ra receptor-ligand binding)
Set-up: purchased Sino Biological Inc. 12047-H07B
Settings: human IL-17A coated plate, human IL-17Ra, read-out: IC50, inhibitory activity of compounds on human IL-17A
pIC50: −log10 of the molar value.
Quantity Name: pIC50

Sample records with pIC50:
Cc1[nH]nc2c1-c1cc(F)c(NC(=O)[C@@H](NC(=O)c3ccnn3C(C)C)C(C3CC3)C3CC3)cc1CN(CC(F)F)C(C)C2 (mixture of isomers) [compound 178]; ≥ 7.30
Cc1[nH]nc2c1-c1cc(F)c(NC(=O)[C@@H](NC(=O)c3ccnn3CC3COC3)C(C3CC3)C3CC3)cc1COCC2 [compound 115]; ≥ 7.30
CCn1nccc1C(=O)N[C@H](C(=O)Nc1ccc2c(c1)CN(C)CCc1n[nH]c(C)c1-2)C(C1CC1)C1CC1 [compound 25]; 6.82 to 7.30
[2H]C([2H])([2H])n1nccc1C(=O)N[C@H](C(=O)Nc1ccc2c(c1)COCCc1n[nH]c(C)c1-2)C(C1CC1)C1CC1 [compound 7]; 6.82 to 7.30
Cc1[nH]nc2c1-c1cc(F)c(NC(=O)[C@@H](NC(=O)c3ccnn3[C@@H](C)CO)[C@H]3CC[C@H](C)CC3)cc1COCC2 [compound 47]; ≥ 7.30
Cc1[nH]nc2c1-c1cnc(NC(=O)[C@@H](NC(=O)c3conc3C3CC3)C(C3CC3)C3CC3)cc1CN(C1CC1)CC2 [compound 215]; ≥ 7.30
Cc1[nH]nc2c1-c1cc(F)c(NC(=O)[C@@H](NC(=O)c3ccnn3CCC(F)(F)F)C(C3CC3)C3CC3)cc1COCC2 [compound 88]; 6.82 to 7.30
Cc1[nH]nc2c1-c1cc(F)c(NC(=O)[C@@H](NC(=O)c3ccnn3C(C)C)C(C3CC3)C3CC3)cc1CN(CC(F)(F)F)CC2 [compound 164]; ≥ 7.30

Prompt: Given Cc1[nH]nc2c1-c1cc(F)c(NC(=O)[C@@H](NC(=O)c3ccnn3C)C(C3CC3)C3CC3)cc1CN(C)C(=O)C2 [compound 134] , state its recorded pIC50.
Completion: 6.82 to 7.30

Prompt: Field request: pIC50 | item: Cc1[nH]nc2c1-c1cc(F)c(NC(=O)[C@@H](NC(=O)c3ccnn3CCC(O)C(F)(F)F)C(C3CC3)C3CC3)cc1COCC2 (some centres unmarked) [compound 81]
Completion: ≥ 7.30

Prompt: Recorded pIC50 for Cc1[nH]nc2c1-c1cnc(NC(=O)[C@@H](NC(=O)c3ccnn3CC(F)(F)F)C(C3CC3)C3CC3)cc1COCC2 [compound 236] , please?
Completion: ≥ 7.30

Prompt: Please report the recorded pIC50 for Cc1[nH]nc2c1-c1cnc(NC(=O)[C@@H](NC(=O)c3ccnn3C(C)C)C(C3CC3)C3CC3)cc1CN(CC(C)(F)F)C(=O)C2 [compound 193] .
Completion: ≥ 7.30

Prompt: Give its pIC50 value. Item: Cc1[nH]nc2c1-c1cnc(NC(=O)[C@@H](NC(=O)c3ccnn3C(C)C)C(C3CC3)C3CC3)cc1CN(C(C)C)CC2 [compound 200]
Completion: ≥ 7.30

Prompt: What value of pIC50 has been reported for the following molecule? CCC(C)n1nccc1C(=O)N[C@H](C(=O)Nc1cc2c(cc1F)-c1c(n[nH]c1C)CCOC2)C(C1CC1)C1CC1 (single isomer, unassigned) [compound 123a]
Completion: ≥ 7.30

Prompt: For Cc1[nH]nc2c1-c1cnc(NC(=O)[C@@H](NC(=O)/C(F)=C\C3CC3)C(C3CC3)C3CC3)cc1CN(C(C)C(F)(F)F)C(=O)C2 (mixture of isomers) [compound 255] , what is its reported pIC50?
Completion: ≥ 7.30

Prompt: Endpoint output: pIC50 of Cc1[nH]nc2c1-c1cc(F)c(NC(=O)[C@@H](NC(=O)c3ccnn3CCCC(F)(F)F)C(C3CC3)C3CC3)cc1COCC2 [compound 84] . Value?
Completion: ≥ 7.30

Prompt: Any idea what its pIC50 is? The molecule is CCn1nccc1C(=O)N[C@H](C(=O)Nc1cc2c(cc1Cl)-c1c[nH]nc1CCOC2)C(C1CC1)C1CC1 [compound 30]
Completion: 6.82 to 7.30

Prompt: State the recorded pIC50 for this entry: Cc1[nH]nc2c1-c1cc(F)c(NC(=O)[C@@H](NC(=O)c3ccnn3C(C)C)C(C3CC3)C3CC3)cc1CN(CC(C)(F)F)C(=O)C2 [compound 148]
Completion: ≥ 7.30

Prompt: Given Cc1[nH]nc2c1-c1cc(F)c(NC(=O)[C@@H](NC(=O)c3ccnn3C(C)C)C(C3CC3)C3CC3)cc1CN(CC1CC1)CC2 [compound 166] , state its recorded pIC50.
Completion: ≥ 7.30

Prompt: GET /values?readout=pIC50&item= CCn1nccc1C(=O)N[C@H](C(=O)Nc1ccc2c(c1)CNC(=O)Cc1n[nH]c(C)c1-2)C(C1CC1)C1CC1 [compound 28]
Completion: ≥ 7.30

Prompt: // pIC50 lookup, key: CCN1CCc2n[nH]c(C)c2-c2cc(F)c(NC(=O)[C@@H](NC(=O)c3ccnn3C(C)C)C(C3CC3)C3CC3)cc2C1 [compound 156]
Completion: ≥ 7.30

Prompt: For the molecule Cc1[nH]nc2c1-c1cc(F)c(NC(=O)[C@@H](NC(=O)c3ccnn3C(C)C)C(C3CC3)C3CC3)cc1CN(C1CCC(F)(F)CC1)CC2 [compound 175] , what pIC50 is on record?
Completion: ≥ 7.30

Prompt: For the molecule shown here, Cc1[nH]nc2c1-c1cc(F)c(NC(=O)[C@@H](NC(=O)c3ccnn3CC3(C(F)(F)F)CC3)C(C3CC3)C3CC3)cc1COCC2 [compound 91] , give the reported pIC50.
Completion: 6.82 to 7.30
